- protocolSummary: Modulation of capsid assembly in HBV infected in human HepG2.2.15 cells assessed as inhibition of viral DNA replication preincubated for 3 days followed by replacement with fresh medium containing compound and measured after 3 days by QuantiGene assay
pEC50: −log10 of the molar value.
Rule: pEC50 under 7 gives F, otherwise T.

CON(C(=O)c1n[nH]c2c1CN(C(=O)Nc1cccc(Cl)c1)CC2)C(C)C
F

## Task Is pEC50 for C[C@@H]1Cc2nn3c(c2CN1C(=O)Nc1ccc(F)c(C#N)c1)C(=O)N(C)O[C@@H](CF)C3 at or above 7?
## Result T

## Task Further, for CON(C)C(=O)c1n[nH]c2c1CN(C(=O)Nc1cccc(Cl)c1)[C@H](C)C2 ?
## Result F
